# METHOD: NCI Yeast Anticancer Drug Screen. Data for the rad50 strain (AID 155);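 note: 0% = growth of vehicle-only cultures of the same strain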
# STATED CONDITIONS: S. cerevisiae rad50 strain growth inhibition; at 50.0 µM; hits give high values
This is part of a sample that, as a whole, favours compounds with a hit. Of some 79,000 tested, about 15% had one in any assay. Activity calls are given as the source filed them. Cut-off read from the data, not from the text of the source: active = growth inhibition above about 70%; inactive = the rest.
RESULT TYPE: growth inhibition

// known answers, use as guide
compound=Nc1nc(Cc2ccccc2)cs1 result_type="growth inhibition" value_reported="24.7% (inactive)"
compound=Cc1cc(O)c2c(c1)C(=O)C=CC2=O result_type="growth inhibition" value_reported="6.7% (inactive)"
compound=COC(=O)c1nc(N)[nH]c(=O)c1-c1ccc(Cl)cc1 result_type="growth inhibition" value_reported="-9.5% (inactive)"
compound=CCN1C(=O)/C(=C/c2cc([N+](=O)[O-])ccc2OCC(=O)O)SC1=S result_type="growth inhibition" value_reported="-1.85% (inactive)"
compound=CN(C)Cc1cc(C(C)(C)C)ccc1-c1ccc(C(C)(C)C)cc1CN(C)C result_type="growth inhibition" value_reported="-42.4% (inactive)"

Problem: GET /values?readout=growth inhibition&item= COc1cc2c(cc1C/C=C/c1cc(OC)c(OC)c(OC)c1)OCO2
Result: -1.95% (inactive)

Problem: Reported growth inhibition for CN(C)CC1CCCC/C1=N/O (stereo unspecified) : what is it?
Result: 0.5% (inactive)

Problem: # query: growth inhibition of entry CC(C)OC(=O)N[C@@H]1c2ccccc2CC[C@H]1I
Result: 24.5% (inactive)

----------
Attribute: growth inhibition
# METHOD: NCI Yeast Anticancer Drug Screen. Data for the rad50 strain (AID 155);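 note: 0% = growth of vehicle-only cultures of the same strain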
# STATED CONDITIONS: S. cerevisiae rad50 strain growth inhibition; at 50.0 µM; hits give high values
The panel holds about 79,000 compounds, 15% with a hit somewhere; the sample as a whole holds those more often.
Write down the numeric answer in % and omit the unit.

Some solved cases for reference:
molecule=Cc1ccc(S(=O)(=O)Oc2cc(-c3ccccc3)nc3ccccc23)cc1 value_reported=5.35
molecule=NC(=O)C(F)(F)C(F)(F)C(N)=O value_reported=-28.1
molecule=CCc1cc(O)cc(C)c1Cl value_reported=55.1
molecule=CCCC(=O)Nc1ccc(OC)cc1 value_reported=16.8
molecule="CCOC(=O)COc1cc2c(cc1C(C)c1ccc(OCc3ccccc3)c(OC)c1)OCO2 (configuration not stated)" value_reported=-0.95

Problem: GET /values?readout=growth inhibition&item= COc1c(OC2OC(CO)C(O)C(O)C2O)cc2c(c1OC)-c1ccc(OC)c(=O)cc1C(NC(C)=O)CC2 (configuration not stated)
Result: 13.8

Problem: Quick check: growth inhibition of O=C(Cl)c1c(F)c(F)c(F)c(F)c1F ?
Result: -29.6

Problem: // returns reported growth inhibition for input Cc1cc(CSCCc2nc3ccccc3[nH]2)c(O)c(CSCCc2nc3ccccc3[nH]2)c1
Result: 15.1

Problem: Given CC[n+]1c([S-])nn(C)c1-c1cnccn1 , state its recorded growth inhibition.
Result: -2.8

Problem: Would you kindly share the measured growth inhibition for CC(=O)OC1C[C@H]2C(OC(=O)c3ccccc3)C3C4(OC(C)=O)COC4C[C@H](OC(C)=O)[C@@]3(C)C(OC(C)=O)[C@H](OC(C)=O)C(=C1C)C2(C)C (some centres not stated) ?
Result: 41.2

Problem: Given the entry Cc1nn(-c2ccc([N+](=O)[O-])cc2)c2c1C(C)(C)C(C#N)=C(N)O2 , report its measured growth inhibition.
Result: -9.9

Problem: I would be grateful if you could share the reported growth inhibition for Nc1nc(N)c(N=Nc2ccccc2[N+](=O)[O-])c(=O)[nH]1 .
Result: 5.85

Problem: For the molecule shown here, CC1(C)C(OS(C)(=O)=O)C(C)(C)C1OS(C)(=O)=O (configuration not stated) , give the reported growth inhibition.
Result: 3.75

Problem: Recorded growth inhibition for NCCCNCCCCNCCCNCc1c2ccccc2c(CNCCCNCCCCNCCCN)c2ccccc12 , please?
Result: 90.7

Problem: Any idea what growth inhibition was measured for CCOC(=O)C(C#N)C1(O)C(=O)Nc2ccccc21 (configuration not stated) ?
Result: -4.65

Problem: Which growth inhibition is reported for this molecule? N#CC(C#N)=C1C=Cc2ccccc2O1
Result: 27.9

Problem: Consider the molecule shown here: Cc1cc(C(c2ccccc2)c2cc(C)cc(C(C)(C)CC(C)(C)C)c2O)c(O)c(C(C)(C)CC(C)(C)C)c1 What is its recorded growth inhibition?
Result: 3.9

Problem: Which value of growth inhibition has been reported for O=C(CN(Cc1ccccc1)Cc1ccccc1)C(O)C1OC(c2ccccc2)OCC1O (configuration not stated) in the records?
Result: 1.45

Problem: Find the recorded growth inhibition belonging to CC(=O)NC(CSC1=C2NC(=O)\C=C/C=C/C=C\C(C)C(O)CC(=O)/C(C)=C\CC(O)/C=C/C(C)C(O)C(C)C=C(C)C(=O)c3c(O)c(C)cc(c3C1=O)C2=O)C(=O)O (configuration not stated) and report it.
Result: 1.1

Problem: Sample CCSCCC(C)(N)C(=O)O (configuration not stated) — what was its growth inhibition?
Result: -7.35

Problem: Item COc1cc(CCCCC(=O)O)ccc1OC(=O)c1ccccc1 has what recorded growth inhibition?
Result: -15.6

Problem: For the molecule Cc1nc(C(Cl)(Cl)Cl)nc(C(Cl)(Cl)Cl)n1 , what growth inhibition is on record?
Result: 19.9

Problem: Field request: growth inhibition | item: C/C=C(/C)C(=O)O[C@H]1CC[N+]2([O-])CC=C(COC(=O)[C@@](O)([C@H](C)OC)C(C)(C)O)[C@H]12 (some centres not stated)
Result: -13.1

Problem: // returns reported growth inhibition for input O=C(O)CCC(=O)NNc1nc2ccccc2s1
Result: 22.1

----------
# METHOD: NCI Yeast Anticancer Drug Screen. Data for the sgs1 mgt1 strain (AID 161);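 note: 0% = growth of cultures given vehicle only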
# STATED CONDITIONS: S. cerevisiae sgs1 mgt1 strain, at 50.0 µM, hits give high values
# Experimental: Growth inhibition of yeast strains with defined genetic alterations is measured as a screen for potential anti-cancer activity. Selected strains with alterations in DNA damage repair or cell cycle control were exposed to compounds and growth inhibition was measured relative to vehicle treated controls. The strain used in this assay is sgs1 mgt1
About 79,000 compounds went through this panel and 15% of them were active in at least one assay; those are over-represented in the sample as a whole.
RESULT TYPE: growth inhibition (%)
Express it in %; write the number only.

Solved cases (3 shown):
compound=CCCCCCCCCCCCCCCCCC(=O)N1C(=O)c2ccccc2C1=O value_reported=6.75
compound="Cc1cccc2c1Oc1ccccc1C2N1C(=O)c2ccccc2C1=O (stereo unspecified)" value_reported=4.9
compound=CCCCCCCCCCCCOC(=O)NCCCl value_reported=-57

Problem: What measured growth inhibition goes with O=c1oc2ccccc2c(O)c1Cc1cccc(Cc2c(O)c3ccccc3oc2=O)c1 ?
Result: 4.9

Problem: Report growth inhibition for C=CC1C(=O)N(C)[C@H](C(C)(C)C)N1C(=O)c1ccccc1 (stereo partly specified) please.
Result: 9.1

Problem: Name the reported growth inhibition value associated with the compound Cc1cc(NC(=O)NC(=O)c2ccccc2NC(=O)CN)ccc1Oc1ncc(Br)cn1
Result: 40.3

Problem: May I ask what growth inhibition has been recorded for CN(c1ccc(Cl)cc1)S(=O)(=O)c1ccc([N+](=O)[O-])cc1 ?
Result: 23.4

Problem: What value of growth inhibition has been reported for the following compound? CC(NC(=O)c1ccccc1)C1CCCCC1 (stereo unspecified)
Result: -1.4

Problem: Item under review: CCCCCC(CN(C)C)C(O)CCc1ccc(Cl)c(Cl)c1 (stereo unspecified) . Reported growth inhibition?
Result: 98

Problem: Form field: reported growth inhibition of BrCCCOc1ccccc1Br
Result: 1.6

Problem: Sample COC(=O)C(C)S(=O)(=O)O (stereo unspecified) — what was its growth inhibition?
Result: 9.35

----------
# METHOD: NCI Yeast Anticancer Drug Screen. Data for the mec2-1 strain (AID 157)
# STATED CONDITIONS: S. cerevisiae mec2-1 strain, at 50.0 µM
Compounds without any hit were thinned out: in the full panel of roughly 79,000, 15% have a hit. The source made the active and inactive calls. No stated cut-off is given here; in the data, active means growth inhibition above about 70%; inactive means the rest. Where a SMILES comes first, the peptide text is derived from it. The star is where a group is joined. Boc = CC(C)(C)OC(=O)*; OBn = c1ccc(CO*)cc1
Log the outcome using a class from True = active, False = inactive

compound="O=C1OCCC1n1cc(F)c(=O)[nH]c1=O (stereo not given)" assigned_label=False
compound=NCC(=O)Nc1ccc(C(=O)O)cc1 assigned_label=False
compound="COc1cc(/C=C2\\CCC(CN(C)C)C2=O)ccc1OC(=O)c1ccccc1 (stereo not given)" assigned_label=True
compound=CC(C)(C)OC(=O)NCCNC(=O)OCc1ccccc1 assigned_label=False
compound=O=C(NC1CCCCC1)c1ccccc1Cl assigned_label=False
compound=CCN(CC)CCOC(=O)c1ccc(NC(=O)OCCC(C)(C)CCOC(=O)Nc2ccc(C(=O)OCCN(CC)CC)cc2)cc1 assigned_label=False
compound=Cc1nn(C)c(=O)c2nn(-c3ccccc3)c(C)c12 assigned_label=False
compound=CCCCCOP(=O)(Cc1ccc(Cl)cc1)OCCCCC assigned_label=True

Problem: Would you mind telling me which call this test gave Nc1ccc2[nH]c(=O)c(=O)[nH]c2c1 ?
Result: False

Problem: Call for entry CC[C@H](/C=C/[C@@H](C)[C@H]1CC[C@H]2[C@@H]3CC[C@@H]4CC(=O)CC[C@]4(C)[C@H]3CC[C@]12C)C(C)C :
Result: False

Problem: For this compound, state the assay outcome: O=C(O)C(CNCc1ccccc1)(c1ccccc1)c1ccccc1
Result: False

Problem: Field: outcome | Entry: CC(NC(=O)C(NC(=O)OC(C)(C)C)C(C)C)C(=O)N1CCCC1C(=O)NCC(=O)NC(C(=O)NCC(=O)OCc1ccccc1)C(C)C (stereo not given) (Boc-VAPGVG-OBn; configuration not given here)
Result: False

Problem: I would be grateful if you could indicate the recorded call for OCCOc1ccc(C(Cc2ccccc2)N(CCO)CCO)cc1 (stereo not given) .
Result: False

Problem: Tell me the assay call for Cn1nnc(C(=O)O)n1 please.
Result: False

Problem: Assay outcome for CCC(=O)NC(Nc1cccc(F)c1C)(C(F)(F)F)C(F)(F)F : what was it?
Result: False
